Consider the following compounds and their measured IC50 readings.
SYSTEM UNDER TEST: human Class I PI3 kinase β (Homo sapiens (Human), UniProt P42338)
Sequence (P42338 whole entry, looked up, canonical isoform): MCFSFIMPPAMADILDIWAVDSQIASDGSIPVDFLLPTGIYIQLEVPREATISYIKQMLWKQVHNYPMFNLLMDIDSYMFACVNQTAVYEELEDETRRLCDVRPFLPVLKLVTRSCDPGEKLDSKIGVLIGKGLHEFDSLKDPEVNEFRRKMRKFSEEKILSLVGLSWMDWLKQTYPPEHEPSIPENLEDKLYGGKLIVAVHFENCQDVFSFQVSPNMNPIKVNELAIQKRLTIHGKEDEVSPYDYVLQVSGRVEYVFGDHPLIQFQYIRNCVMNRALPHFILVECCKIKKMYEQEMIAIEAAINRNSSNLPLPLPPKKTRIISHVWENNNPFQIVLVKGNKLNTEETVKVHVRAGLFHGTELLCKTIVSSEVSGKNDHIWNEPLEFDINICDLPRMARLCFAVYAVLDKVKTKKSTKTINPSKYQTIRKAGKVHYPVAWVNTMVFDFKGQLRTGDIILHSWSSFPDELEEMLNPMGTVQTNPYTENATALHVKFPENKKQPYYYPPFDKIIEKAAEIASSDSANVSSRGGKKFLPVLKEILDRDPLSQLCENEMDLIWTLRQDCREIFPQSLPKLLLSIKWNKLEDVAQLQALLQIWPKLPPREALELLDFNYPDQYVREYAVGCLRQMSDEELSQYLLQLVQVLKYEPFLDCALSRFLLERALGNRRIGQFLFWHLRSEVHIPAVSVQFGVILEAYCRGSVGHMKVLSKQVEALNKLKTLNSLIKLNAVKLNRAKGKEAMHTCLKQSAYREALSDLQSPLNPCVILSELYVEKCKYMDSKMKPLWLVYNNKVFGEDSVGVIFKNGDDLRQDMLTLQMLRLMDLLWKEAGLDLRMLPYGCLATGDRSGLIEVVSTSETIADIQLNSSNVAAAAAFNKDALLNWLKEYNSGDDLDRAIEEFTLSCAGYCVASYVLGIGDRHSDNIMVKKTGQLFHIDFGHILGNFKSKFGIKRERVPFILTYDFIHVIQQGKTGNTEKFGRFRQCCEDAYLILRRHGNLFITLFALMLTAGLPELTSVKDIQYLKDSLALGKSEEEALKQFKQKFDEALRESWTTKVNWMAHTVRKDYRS
Sequence (P27986 whole entry partner, looked up, canonical isoform): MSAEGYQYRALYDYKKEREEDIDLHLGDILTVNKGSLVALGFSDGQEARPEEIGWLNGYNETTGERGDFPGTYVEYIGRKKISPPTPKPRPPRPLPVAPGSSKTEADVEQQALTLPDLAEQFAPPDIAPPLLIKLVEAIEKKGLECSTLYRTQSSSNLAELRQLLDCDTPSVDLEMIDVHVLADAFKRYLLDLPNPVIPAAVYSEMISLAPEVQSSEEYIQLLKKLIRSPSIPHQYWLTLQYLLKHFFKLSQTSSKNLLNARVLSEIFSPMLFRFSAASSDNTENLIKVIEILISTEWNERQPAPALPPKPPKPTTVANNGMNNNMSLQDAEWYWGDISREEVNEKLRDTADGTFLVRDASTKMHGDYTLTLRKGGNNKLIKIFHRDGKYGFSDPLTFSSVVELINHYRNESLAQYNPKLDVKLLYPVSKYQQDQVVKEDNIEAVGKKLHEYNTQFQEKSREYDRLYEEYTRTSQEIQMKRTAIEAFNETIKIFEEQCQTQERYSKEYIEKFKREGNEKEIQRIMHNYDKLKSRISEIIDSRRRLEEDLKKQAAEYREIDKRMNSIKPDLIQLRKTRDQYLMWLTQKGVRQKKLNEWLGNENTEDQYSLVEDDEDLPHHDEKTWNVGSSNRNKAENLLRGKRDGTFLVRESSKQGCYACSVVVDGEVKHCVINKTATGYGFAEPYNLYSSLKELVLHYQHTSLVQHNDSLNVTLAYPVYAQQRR
PROTOCOL TEXT: PI3-Kinase Promega ADP-Glo Max assay, β isoform
RECORDED CONDITIONS: 40 nM kinase, 3 mM ATP, 500 uM diC8-PtdInsP; read-out: Promega β PI3K IC50

>  <COMPOUND>
CCn1cc(-c2cccc3cc([C@H](C)NC(=O)c4c(N)nn5cccnc45)n(-c4ccccc4)c(=O)c23)cn1 [Compound 5]

>  <SYSTEM UNDER TEST>
human Class I PI3 kinase β (Homo sapiens (Human), UniProt P42338)

>  <IC50>
1000 to 10000 nM

$$$$

Shift focus to the following entry.
Input line: Give reported IC50 value for C[C@H](NC(=O)c1c(N)nn2cccnc12)c1cc2cccc(Cl)c2c(=O)n1-c1cccc(NS(C)(=O)=O)c1 [Compound 79]
Output line: 100 to 500 nM

###

SYSTEM UNDER TEST: p110 γ (RAW264.7 cells) (Mus musculus (Mouse))
Sequence (Q9JHG7 whole entry): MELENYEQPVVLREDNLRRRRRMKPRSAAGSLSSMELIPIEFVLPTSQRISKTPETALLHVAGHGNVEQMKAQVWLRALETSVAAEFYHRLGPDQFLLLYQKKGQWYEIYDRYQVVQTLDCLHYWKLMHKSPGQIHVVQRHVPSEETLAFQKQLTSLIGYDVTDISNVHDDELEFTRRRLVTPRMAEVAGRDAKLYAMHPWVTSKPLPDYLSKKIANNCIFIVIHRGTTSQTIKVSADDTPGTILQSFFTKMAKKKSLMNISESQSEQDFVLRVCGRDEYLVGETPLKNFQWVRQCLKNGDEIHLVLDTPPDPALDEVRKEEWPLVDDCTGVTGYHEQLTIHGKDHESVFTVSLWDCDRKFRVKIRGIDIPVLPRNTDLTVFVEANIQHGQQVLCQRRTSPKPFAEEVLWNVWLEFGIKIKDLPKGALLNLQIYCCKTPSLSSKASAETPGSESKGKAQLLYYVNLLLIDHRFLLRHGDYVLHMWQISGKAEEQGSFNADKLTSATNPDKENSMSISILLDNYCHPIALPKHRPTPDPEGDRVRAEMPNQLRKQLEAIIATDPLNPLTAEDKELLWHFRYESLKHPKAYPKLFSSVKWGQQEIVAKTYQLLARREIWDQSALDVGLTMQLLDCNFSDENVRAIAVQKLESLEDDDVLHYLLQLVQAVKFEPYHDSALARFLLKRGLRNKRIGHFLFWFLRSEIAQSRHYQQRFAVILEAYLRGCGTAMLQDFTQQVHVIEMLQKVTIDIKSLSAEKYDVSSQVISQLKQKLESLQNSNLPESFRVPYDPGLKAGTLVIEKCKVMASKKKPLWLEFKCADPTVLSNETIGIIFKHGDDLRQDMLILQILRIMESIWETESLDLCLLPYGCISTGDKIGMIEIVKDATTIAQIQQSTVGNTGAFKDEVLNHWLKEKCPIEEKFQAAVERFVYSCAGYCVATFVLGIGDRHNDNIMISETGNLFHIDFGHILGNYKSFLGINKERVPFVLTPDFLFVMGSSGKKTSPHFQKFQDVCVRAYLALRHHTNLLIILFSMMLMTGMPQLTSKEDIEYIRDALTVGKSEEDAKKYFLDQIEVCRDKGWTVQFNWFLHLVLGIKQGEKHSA
PROTOCOL TEXT: PI3K-γ selective cellular assay: phospho-AKT in C5a stimulated RAW264.7 macrophages
RECORDED CONDITIONS: serum-starved RAW264.7 cells stimulated with C5a
Method: Certain compounds provided herein were tested in RAW 264.7 cell model using procedures as described above.
ATTRIBUTE MEASURED: IC50

Here's what some known entries look like.
>  <COMPOUND>
C[C@H](NC(=O)c1c(N)nn2cccnc12)c1cc2cccc(Cl)c2c(=O)n1-c1ccc(O)cc1 [Compound 70]

>  <MEASURED RESULT>
10 to 100 nM

$$$$
>  <COMPOUND>
Cc1cccc(-n2c([C@H](C)NC(=O)c3c(N)nn4cccnc34)cc3cccc(Cl)c3c2=O)c1 [Compound 74]

>  <MEASURED RESULT>
10 to 100 nM

$$$$
>  <COMPOUND>
Cc1noc(CCn2c([C@H](C)NC(=O)c3c(N)nn4cccnc34)cc3cccc(Cl)c3c2=O)n1 [Compound 18]

>  <MEASURED RESULT>
100 to 500 nM

$$$$

Input line: Tell me IC50 reported for C[C@H](NC(=O)c1c(N)nn2cccnc12)c1cc2cccc(Cl)c2c(=O)n1CCCNS(C)(=O)=O [Compound 53]
Output line: 100 to 500 nM

Input line: For C[C@H](NC(=O)c1c(N)nn2cccnc12)c1cc2cccc(-c3cnn(CC(F)(F)F)c3)c2c(=O)n1-c1ccccc1 [Compound 50] , write its IC50.
Output line: 10 to 100 nM

Input line: For C[C@H](NC(=O)c1c(N)nn2cccnc12)c1nc2cccc(Cl)c2c(=O)n1-c1ccc(F)c(F)c1 [Compound 91] , write its IC50.
Output line: 10 to 100 nM

Input line: Consider the compound C[C@H](NC(=O)c1c(N)nn2cccnc12)c1cc2cccc(Cl)c2c(=O)n1CCc1nnn[nH]1 [Compound 16] . State its measured IC50.
Output line: 500 to 1000 nM

Input line: Item C[C@H](NC(=O)c1c(N)nn2cccnc12)c1cc2cccc(Cl)c2c(=O)n1CCc1ncn[nH]1 [Compound 20] : provide IC50
Output line: 1000 to 10000 nM

Input line: Respond only with IC50 recorded for C[C@H](NC(=O)c1c(N)ncn2ccnc12)c1cc2cccc(Cl)c2c(=O)n1-c1ccccc1 [Compound 43]
Output line: 1 to 10 nM

Input line: Provide measured IC50 value, entry: Cc1ccc(-n2c([C@H](C)NC(=O)c3c(N)nn4cccnc34)cc3cccc(Cl)c3c2=O)cc1 [Compound 75]
Output line: 10 to 100 nM

Input line: For the compound C[C@H](NC(=O)c1c(N)nn2cccnc12)c1cc2cccc(Cl)c2c(=O)n1CCc1ccccc1 [Compound 15] , report IC50.
Output line: 100 to 500 nM

Input line: Recall and state the measured IC50 for C[C@H](NC(=O)c1c(N)nn2cccnc12)c1cc2cccc(Cl)c2c(=O)n1CCc1noc(C(C)(C)C)n1 [Compound 64] .
Output line: 100 to 500 nM

Input line: Please give measured IC50 of the following entry: C#CCCn1c([C@H](C)NC(=O)c2c(N)nn3cccnc23)cc2cccc(Cl)c2c1=O [Compound 62]
Output line: 10 to 100 nM

Input line: Supply recorded IC50 for Cc1ccccc1-n1c([C@H](C)NC(=O)c2c(N)nn3cccnc23)cc2cccc(Cl)c2c1=O [Compound 73] here.
Output line: 1 to 10 nM

Input line: Look up IC50 of C[C@H](NC(=O)c1c(N)nn2cccnc12)c1cc2cccc(Cl)c2c(=O)n1-c1ccccc1NS(C)(=O)=O [Compound 78] and report it.
Output line: 10 to 100 nM

###

SYSTEM UNDER TEST: UniProt P48736
Sequence (P48736 whole entry, canonical isoform): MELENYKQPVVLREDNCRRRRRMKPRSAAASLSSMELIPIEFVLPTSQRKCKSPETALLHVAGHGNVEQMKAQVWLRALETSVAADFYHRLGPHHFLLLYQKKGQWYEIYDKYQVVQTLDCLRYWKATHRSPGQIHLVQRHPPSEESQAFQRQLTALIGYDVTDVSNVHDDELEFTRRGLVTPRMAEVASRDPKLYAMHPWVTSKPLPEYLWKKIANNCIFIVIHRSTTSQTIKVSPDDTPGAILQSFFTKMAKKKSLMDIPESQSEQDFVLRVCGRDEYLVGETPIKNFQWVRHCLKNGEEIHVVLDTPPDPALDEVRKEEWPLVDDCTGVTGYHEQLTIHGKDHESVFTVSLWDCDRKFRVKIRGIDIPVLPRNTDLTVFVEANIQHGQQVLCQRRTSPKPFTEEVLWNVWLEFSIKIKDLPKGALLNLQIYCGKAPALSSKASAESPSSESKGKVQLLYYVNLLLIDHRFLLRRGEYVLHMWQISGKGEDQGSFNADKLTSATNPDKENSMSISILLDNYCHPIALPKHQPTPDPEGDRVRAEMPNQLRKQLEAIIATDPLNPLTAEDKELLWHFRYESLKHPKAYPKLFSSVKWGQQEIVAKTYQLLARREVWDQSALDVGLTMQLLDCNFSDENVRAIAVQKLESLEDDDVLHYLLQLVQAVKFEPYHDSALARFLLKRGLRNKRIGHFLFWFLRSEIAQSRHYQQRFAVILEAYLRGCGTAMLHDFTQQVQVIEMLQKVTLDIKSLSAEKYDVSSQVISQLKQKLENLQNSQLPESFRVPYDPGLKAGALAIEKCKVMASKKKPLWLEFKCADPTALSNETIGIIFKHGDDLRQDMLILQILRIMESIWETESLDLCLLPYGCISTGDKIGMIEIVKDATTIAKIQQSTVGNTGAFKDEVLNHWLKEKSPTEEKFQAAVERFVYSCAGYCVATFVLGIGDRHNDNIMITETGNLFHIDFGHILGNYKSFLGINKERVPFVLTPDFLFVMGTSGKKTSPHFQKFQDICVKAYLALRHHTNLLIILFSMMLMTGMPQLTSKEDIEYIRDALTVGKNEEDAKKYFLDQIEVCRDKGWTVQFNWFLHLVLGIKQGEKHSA
PROTOCOL TEXT: PI3-Kinase Promega ADP-Glo Max assay, γ isoform
Type: biochemical
RECORDED CONDITIONS: 40 nM kinase, 3 mM ATP, 500 uM diC8-PtdInsP; read-out: Promega γ PI3K IC50
Excerpt: Promega ADP-Glo Max assay kit (Cat. No. V7002) was utilized to determine IC50 values for α, β, δ and γ isoforms of human Class I PI3 kinases (Millipore). […] Plates were then read on Envision plate reader in luminescence mode. […] [formula] where S is the sample luminescence, Pos is a positive control without added PI3K, Neg is the negative control without added compound. […]
ATTRIBUTE MEASURED: IC50

Solved entries (count: 3):
>  <COMPOUND>
Cc1cccc2c(=O)n(-c3ccccc3)c([C@H](C)NC(=O)c3c(N)nn4cccnc34)nc12 [Compound 92]

>  <MEASURED RESULT>
1000 to 10000 nM

$$$$
>  <COMPOUND>
C[C@H](NC(=O)c1c(N)nn2cccnc12)c1cc2cccc(Cl)c2c(=O)n1CCS(N)(=O)=O [Compound 19]

>  <MEASURED RESULT>
10 to 100 nM

$$$$
>  <COMPOUND>
C[C@H](NC(=O)c1c(N)nn2cccnc12)c1nc2cccc(Cl)c2c(=O)n1-c1ccc(F)cc1 [Compound 45]

>  <MEASURED RESULT>
10 to 100 nM

$$$$

Now consider the entry below.
Input line: Look up and report measured IC50 (UniProt P48736) for the following compound: Cc1cccc(-n2c([C@H](C)NC(=O)c3c(N)nn4cccnc34)cc3cccc(Cl)c3c2=O)c1 [Compound 74]
Output line: 100 to 500 nM

###

Listed below: IC50 values for each entry.
SYSTEM UNDER TEST: UniProtKB P42338
PROTOCOL TEXT: PI3-Kinase Promega ADP-Glo Max assay, β isoform
RECORDED CONDITIONS: 40 nM kinase, 3 mM ATP, 500 uM diC8-PtdInsP; read-out: Promega β PI3K IC50

Examples with answers:
>  <COMPOUND>
C[C@H](NC(=O)c1c(N)nn2cccnc12)c1nc2cccc(N3CCOCC3)c2c(=O)n1-c1ccccc1 [Compound 90]

>  <IC50>
1000 to 10000 nM

$$$$
>  <COMPOUND>
C[C@H](NC(=O)c1c(N)nn2cccnc12)c1cc2cccc(CC(=O)C(C)(C)C)c2c(=O)n1-c1ccccc1 [Compound 94]

>  <IC50>
1000 to 10000 nM

$$$$
>  <COMPOUND>
C[C@H](NC(=O)c1c(N)nn2cccnc12)c1cc2cccc(Cl)c2c(=O)n1CCc1cnn[nH]1 [Compound 63]

>  <IC50>
100 to 500 nM

$$$$
>  <COMPOUND>
C[C@H](NC(=O)c1c(N)nn2cccnc12)c1nc2c(Cl)cccc2c(=O)n1-c1ccccc1 [Compound 87]

>  <IC50>
1000 to 10000 nM

$$$$
>  <COMPOUND>
C[C@H](NC(=O)c1c(N)nn2cccnc12)c1cc2cccc(OCc3cnn(C)c3)c2c(=O)n1-c1ccccc1 [Compound 67]

>  <IC50>
1000 to 10000 nM

$$$$

Kindly consider the entry below.
Input line: Report measured IC50; entry is C[C@H](NC(=O)c1c(N)nn2cccnc12)c1nc2cccc(Cl)c2c(=O)n1-c1ccc(F)cc1 [Compound 45]
Output line: 1000 to 10000 nM

###

The entries below come with measured IC50 values attached.
SYSTEM UNDER TEST: human Class I PI3 kinase β (Homo sapiens (Human))
PROTOCOL TEXT: PI3-Kinase Promega ADP-Glo Max assay, β isoform
RECORDED CONDITIONS: 40 nM kinase, 3 mM ATP, 500 uM diC8-PtdInsP; read-out: Promega β PI3K IC50

As a guide, the following entries are already answered.
>  <SMILES TEXT>
C[C@H](NC(=O)c1c(N)nn2cccnc12)c1nc2ccccc2c(=O)n1-c1ccccc1

>  <SYSTEM UNDER TEST>
human Class I PI3 kinase β (Homo sapiens (Human))

>  <IC50>
1000 to 10000 nM

$$$$
>  <SMILES TEXT>
C[C@H](NC(=O)c1c(N)nn2cccnc12)c1cc2cccc(-c3cnn(CC#N)c3)c2c(=O)n1-c1ccccc1

>  <SYSTEM UNDER TEST>
human Class I PI3 kinase β (Homo sapiens (Human))

>  <IC50>
1000 to 10000 nM

$$$$
>  <SMILES TEXT>
C[C@H](NC(=O)c1c(N)nn2cccnc12)c1cc2cccc(Cl)c2c(=O)n1CCc1noc(C(C)(C)C)n1

>  <SYSTEM UNDER TEST>
human Class I PI3 kinase β (Homo sapiens (Human))

>  <IC50>
1000 to 10000 nM

$$$$

Input line: Let me know recorded IC50 for COc1ccccc1-n1c([C@H](C)NC(=O)c2c(N)nn3cccnc23)cc2cccc(Cl)c2c1=O , thanks.
Output line: 500 to 1000 nM

Input line: Provide only the value of recorded IC50 for C[C@H](NC(=O)c1nccnc1N)c1oc2ccc(F)cc2c(=O)c1-c1ccccc1
Output line: 1000 to 10000 nM

Input line: Entry C[C@H](NC(=O)c1c(N)nn2cccnc12)c1cc2cccc(Cl)c2c(=O)n1-c1ccc(S(C)(=O)=O)cc1 needs its IC50 filled in; supply it.
Output line: 1000 to 10000 nM

Input line: Find the measured IC50 of C[C@H](NC(=O)c1c(N)nn2cccnc12)c1cc2cccc(Cl)c2c(=O)n1-c1ccc(O)cc1 and report it.
Output line: 1 to 10 nM

Input line: Return value of IC50 for input Cc1ccnc2c(C(=O)N[C@@H](C)c3cc4cccc(Cl)c4c(=O)n3-c3ccccc3)c(N)nn12 , no commentary.
Output line: 1000 to 10000 nM

Input line: For the compound Cc1ccc(-n2c([C@H](C)NC(=O)c3c(N)nn4cccnc34)cc3cccc(Cl)c3c2=O)cc1 , give its measured IC50 value.
Output line: 1000 to 10000 nM
